Listing of recorded LC retention time by entry.
assayInfo: RP, Waters ACQUITY UPLC HSS T3, 0.1 mL/min; A: water + 0.01% formic acid; B: acetonitrile + 0.01% formic acid; gradient (min/%B) 0/10 38/45 45/45 55/0 60/0
reportedConditions: stereoisomer not certain
Numbers only here, please. The scale is min.

- compound: "Cc1cc(C)nc(Nc2ccccc2)n1"
  unitTag: "min"
  LC retention time: 22.2
- compound: "COc1ccc(C(=O)c2ccccc2)c(O)c1"
  unitTag: "min"
  LC retention time: 40.6
- compound: "CCOP(=S)(OCC)Oc1nc(Cl)c(Cl)cc1Cl"
  unitTag: "min"
  LC retention time: 45.5
- compound: "N[C@@H](Cc1cc(I)c(Oc2cc(I)c(O)c(I)c2)c(I)c1)C(=O)O"
  unitTag: "min"
  LC retention time: 25.6
- compound: "CC12CCC3C(CC=C4CC(O)CCC43C)C1CCC2=O (stereo not given) [Dehydroepiandrosterone]"
  unitTag: "min"
  LC retention time: 31.7

Q: Consider the compound shown here: COc1cc2c(c3oc(=O)c4c(c13)CCC4=O)C1C=COC1O2 (stereo not given) What is its recorded LC retention time?
Ans: 17.5

Q: Consider the compound shown here: COCC(=O)N(c1c(C)cccc1C)C(C)C(=O)OC (stereo not given) [Metalaxyl] What is its recorded LC retention time?
Ans: 24.3

Q: Consider the compound shown here: "Nc1nc2ccccc2[nH]1" What is its recorded LC retention time?
Ans: 4.74

Q: Consider the compound shown here: "Nc1ccc(O)cc1" What is its recorded LC retention time?
Ans: 1.3

Q: Consider the compound shown here: "COC=C(C(=O)OC)c1ccccc1Oc1cc(Oc2ccccc2C#N)ncn1" What is its recorded LC retention time?
Ans: 38

Q: Consider the compound shown here: "CSc1nc(NC2CC2)nc(NC(C)(C)C)n1" What is its recorded LC retention time?
Ans: 29.9

Q: Consider the compound shown here: "O=C(O)Cc1ccccc1Nc1c(Cl)cccc1Cl" What is its recorded LC retention time?
Ans: 39.6

Q: Consider the compound shown here: "CCNc1nc(NC(C)C)nc(SC)n1" What is its recorded LC retention time?
Ans: 20.1

Q: Consider the compound shown here: "CCOCN(C(=O)CCl)c1c(C)cccc1CC" What is its recorded LC retention time?
Ans: 40.6

Q: Consider the compound shown here: CC12CCC3c4ccc(O)cc4CCC3C1CCC2=O (stereo not given) What is its recorded LC retention time?
Ans: 31.6

Q: Consider the compound shown here: "Cn1c(=O)c2c(ncn2C)n(C)c1=O" What is its recorded LC retention time?
Ans: 5.71

Q: Consider the compound shown here: CCCC1COC(Cn2cncn2)(c2ccc(Cl)cc2Cl)O1 (stereo not given) What is its recorded LC retention time?
Ans: 41.7

Q: Consider the compound shown here: CC12CCC(=O)C=C1CCC1C2C(O)CC2(C=O)C(C(=O)CO)CCC12 (stereo not given) What is its recorded LC retention time?
Ans: 13.8

Q: Consider the compound shown here: "Cc1nnc(-c2ccccc2)c(=O)n1N" What is its recorded LC retention time?
Ans: 8.55

Q: Consider the compound shown here: CC12CCC(=O)C=C1CCC1C2CCC2(C)C(O)CCC12 (stereo not given) What is its recorded LC retention time?
Ans: 28.9

====

assayInfo: RP, Waters ACQUITY UPLC HSS T3, 0.1 mL/min; A: water + 0.01% formic acid; B: acetonitrile + 0.01% formic acid; gradient (min/%B) 0/10 38/45 45/45 55/0 60/0
reportedConditions: stereoisomer not certain
Listing of recorded LC retention time by entry.

Example entries begin here.
- chemSmiles: "Nc1ccccc1"
  parameterMeasured: "LC retention time"
  experimentalValue: "3.1 min"
- chemSmiles: "CC(=O)Nc1ccc(O)cc1"
  parameterMeasured: "LC retention time"
  experimentalValue: "4.98 min"

Q: Consider the compound shown here: "O=C(C=CC=Cc1ccc2c(c1)OCO2)N1CCCCC1" What is its recorded LC retention time?
Ans: 36.4 min

====

assayInfo: RP, Waters ACQUITY UPLC HSS T3, 0.1 mL/min; A: water + 0.01% formic acid; B: acetonitrile + 0.01% formic acid; gradient (min/%B) 0/10 38/45 45/45 55/0 60/0
reportedConditions: stereoisomer not certain
parameterMeasured: LC retention time

Example entries begin here.
- molecule: "CC(=O)C1(O)CCC2C3CCC4=CC(=O)CCC4(C)C3CCC21C (stereo not given) [Progesterone-17-hydroxy]"
  parameterMeasured: "LC retention time"
  experimentalValue: "33.9 min"
- molecule: "CN(C)C(=O)Nc1ccc(Cl)c(Cl)c1"
  parameterMeasured: "LC retention time"
  experimentalValue: "23.7 min"
- molecule: "COC(=O)c1cccc(C)c1S(=O)(=O)NC(=O)Nc1nc(OCC(F)(F)F)nc(N(C)C)n1"
  parameterMeasured: "LC retention time"
  experimentalValue: "39 min"
- molecule: "CCCOc1nn(C(=O)NS(=O)(=O)c2ccccc2C(=O)OC)c(=O)n1C"
  parameterMeasured: "LC retention time"
  experimentalValue: "22.1 min"
- molecule: "CS(=O)(=O)c1cc(C(F)(F)F)ccc1C(=O)c1cnoc1C1CC1"
  parameterMeasured: "LC retention time"
  experimentalValue: "35.3 min"
- molecule: "CC12CCC3c4cc(O)c(O)cc4CCC3C1CCC2O (stereo not given) [Estradiol-2-hydroxy]"
  parameterMeasured: "LC retention time"
  experimentalValue: "21.5 min"
- molecule: "CCCCCC(O)C=CC1C(O)CC(=O)C1CC=CCCCC(=O)O (stereo not given) [Prostaglandin E2]"
  parameterMeasured: "LC retention time"
  experimentalValue: "26.5 min"
- molecule: "CCC(C)(CC)c1cc(NC(=O)c2c(OC)cccc2OC)on1"
  parameterMeasured: "LC retention time"
  experimentalValue: "39 min"

Q: Consider the molecule shown here: "O=C(O)c1ccccc1O" What is its recorded LC retention time?
Ans: 8.4 min

Q: Consider the molecule shown here: "COc1ccc(C(=CC(=O)N2CCOCC2)c2ccc(Cl)cc2)cc1OC" What is its recorded LC retention time?
Ans: 32.7 min

Attribution: the RepoRT retention time repository
